- Assay Explanation: Water-solubility evaluation
- Type: physicochemical
- Test Parameters: 20° C.
Quantity Kind: solubility

Compound: CC(C)Oc1ccc(-c2ccc3c(c2)CC(C)(C)C3NC(=O)O[C@@H]2CN3CCC2CC3)cc1Cl (stereo partly shown) [Compound of WO 2021/096238, reference compound]
Data Value: < 10 µg/mL
